- Target Entity: hSGK3 (Homo sapiens, UniProt Q96BR1)
- Sequence (Q96BR1 1-496): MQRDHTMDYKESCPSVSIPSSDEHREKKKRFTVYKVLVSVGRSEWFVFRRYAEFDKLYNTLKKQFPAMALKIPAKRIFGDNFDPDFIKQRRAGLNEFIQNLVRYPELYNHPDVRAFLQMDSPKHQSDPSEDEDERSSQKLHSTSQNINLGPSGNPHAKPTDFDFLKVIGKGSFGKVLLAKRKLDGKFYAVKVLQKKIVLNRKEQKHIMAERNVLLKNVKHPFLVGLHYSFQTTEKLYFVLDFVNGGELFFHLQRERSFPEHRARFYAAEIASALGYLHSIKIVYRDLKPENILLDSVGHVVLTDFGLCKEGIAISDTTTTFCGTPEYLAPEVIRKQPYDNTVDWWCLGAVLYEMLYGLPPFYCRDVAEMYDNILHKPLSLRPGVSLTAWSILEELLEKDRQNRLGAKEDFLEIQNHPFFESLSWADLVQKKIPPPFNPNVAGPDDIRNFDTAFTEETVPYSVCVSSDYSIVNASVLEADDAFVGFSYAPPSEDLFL
Measured Property: IC50

Indicate its recorded IC50; the compound in question is "Cc1cn(CCN2CCN(c3ccccc3-c3cc(C#N)cc(C(=O)NCCCN4CCCC4)c3)CC2)c2ccccc12" > 20 µM

* * *

- Target Entity: hSTK36 (Homo sapiens, UniProt Q9NRP7)
- Sequence (Q9NRP7 1-1315): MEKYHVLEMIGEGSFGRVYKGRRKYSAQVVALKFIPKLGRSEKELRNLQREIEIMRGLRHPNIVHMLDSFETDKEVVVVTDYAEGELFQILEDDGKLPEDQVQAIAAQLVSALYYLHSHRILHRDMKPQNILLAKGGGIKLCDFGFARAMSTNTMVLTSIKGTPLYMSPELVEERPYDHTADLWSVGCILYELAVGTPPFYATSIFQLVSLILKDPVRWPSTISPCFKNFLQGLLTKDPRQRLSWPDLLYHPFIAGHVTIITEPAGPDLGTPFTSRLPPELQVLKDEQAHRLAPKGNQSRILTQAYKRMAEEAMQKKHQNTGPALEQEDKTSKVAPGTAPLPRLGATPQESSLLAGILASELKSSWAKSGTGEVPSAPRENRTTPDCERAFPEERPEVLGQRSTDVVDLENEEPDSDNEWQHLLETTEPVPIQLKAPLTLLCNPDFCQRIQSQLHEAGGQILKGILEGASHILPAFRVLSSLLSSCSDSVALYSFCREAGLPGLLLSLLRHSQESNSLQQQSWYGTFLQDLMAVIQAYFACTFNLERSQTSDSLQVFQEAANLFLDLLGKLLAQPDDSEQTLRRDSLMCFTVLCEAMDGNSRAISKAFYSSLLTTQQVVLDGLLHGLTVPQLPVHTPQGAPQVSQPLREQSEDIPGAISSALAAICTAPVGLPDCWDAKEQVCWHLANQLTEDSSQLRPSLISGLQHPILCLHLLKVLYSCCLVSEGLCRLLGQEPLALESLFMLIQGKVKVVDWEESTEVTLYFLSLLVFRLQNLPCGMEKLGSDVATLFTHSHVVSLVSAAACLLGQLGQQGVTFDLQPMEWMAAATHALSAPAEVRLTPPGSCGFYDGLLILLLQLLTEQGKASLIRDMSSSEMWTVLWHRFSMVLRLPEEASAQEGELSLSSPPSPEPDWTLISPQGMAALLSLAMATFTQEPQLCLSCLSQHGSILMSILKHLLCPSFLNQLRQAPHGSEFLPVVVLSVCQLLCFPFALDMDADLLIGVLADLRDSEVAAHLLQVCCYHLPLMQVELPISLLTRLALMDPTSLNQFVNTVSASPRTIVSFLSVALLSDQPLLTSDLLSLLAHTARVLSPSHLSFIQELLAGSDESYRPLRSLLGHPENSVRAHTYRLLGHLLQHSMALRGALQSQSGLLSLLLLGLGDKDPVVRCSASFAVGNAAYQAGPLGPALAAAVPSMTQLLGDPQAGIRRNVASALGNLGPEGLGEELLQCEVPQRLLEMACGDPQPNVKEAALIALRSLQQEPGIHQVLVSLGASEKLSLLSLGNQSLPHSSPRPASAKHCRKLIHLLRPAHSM
pIC50: −log10 of the molar value.
Measured Property: pIC50

Indicate its recorded pIC50; the compound in question is "Cc1cn(CCN2CCN(c3ccccc3-c3cc(C#N)cc(C(=O)NCCCN4CCCC4)c3)CC2)c2ccccc12" < 4.70

* * *

- Target Entity: hFLT1 (Homo sapiens)
pIC50: −log10 of the molar value.
Measured Property: pIC50

Name the value of pIC50 reported for Cc1cn(CCN2CCN(c3ccccc3-c3cc(C#N)cc(C(=O)NCCCN4CCCC4)c3)CC2)c2ccccc12 [LLY-507] when tested on hFLT1 (Homo sapiens). < 4.70

* * *

- Target Entity: hQSK (Homo sapiens, UniProt Q9Y2K2)
- Sequence (Q9Y2K2 whole entry): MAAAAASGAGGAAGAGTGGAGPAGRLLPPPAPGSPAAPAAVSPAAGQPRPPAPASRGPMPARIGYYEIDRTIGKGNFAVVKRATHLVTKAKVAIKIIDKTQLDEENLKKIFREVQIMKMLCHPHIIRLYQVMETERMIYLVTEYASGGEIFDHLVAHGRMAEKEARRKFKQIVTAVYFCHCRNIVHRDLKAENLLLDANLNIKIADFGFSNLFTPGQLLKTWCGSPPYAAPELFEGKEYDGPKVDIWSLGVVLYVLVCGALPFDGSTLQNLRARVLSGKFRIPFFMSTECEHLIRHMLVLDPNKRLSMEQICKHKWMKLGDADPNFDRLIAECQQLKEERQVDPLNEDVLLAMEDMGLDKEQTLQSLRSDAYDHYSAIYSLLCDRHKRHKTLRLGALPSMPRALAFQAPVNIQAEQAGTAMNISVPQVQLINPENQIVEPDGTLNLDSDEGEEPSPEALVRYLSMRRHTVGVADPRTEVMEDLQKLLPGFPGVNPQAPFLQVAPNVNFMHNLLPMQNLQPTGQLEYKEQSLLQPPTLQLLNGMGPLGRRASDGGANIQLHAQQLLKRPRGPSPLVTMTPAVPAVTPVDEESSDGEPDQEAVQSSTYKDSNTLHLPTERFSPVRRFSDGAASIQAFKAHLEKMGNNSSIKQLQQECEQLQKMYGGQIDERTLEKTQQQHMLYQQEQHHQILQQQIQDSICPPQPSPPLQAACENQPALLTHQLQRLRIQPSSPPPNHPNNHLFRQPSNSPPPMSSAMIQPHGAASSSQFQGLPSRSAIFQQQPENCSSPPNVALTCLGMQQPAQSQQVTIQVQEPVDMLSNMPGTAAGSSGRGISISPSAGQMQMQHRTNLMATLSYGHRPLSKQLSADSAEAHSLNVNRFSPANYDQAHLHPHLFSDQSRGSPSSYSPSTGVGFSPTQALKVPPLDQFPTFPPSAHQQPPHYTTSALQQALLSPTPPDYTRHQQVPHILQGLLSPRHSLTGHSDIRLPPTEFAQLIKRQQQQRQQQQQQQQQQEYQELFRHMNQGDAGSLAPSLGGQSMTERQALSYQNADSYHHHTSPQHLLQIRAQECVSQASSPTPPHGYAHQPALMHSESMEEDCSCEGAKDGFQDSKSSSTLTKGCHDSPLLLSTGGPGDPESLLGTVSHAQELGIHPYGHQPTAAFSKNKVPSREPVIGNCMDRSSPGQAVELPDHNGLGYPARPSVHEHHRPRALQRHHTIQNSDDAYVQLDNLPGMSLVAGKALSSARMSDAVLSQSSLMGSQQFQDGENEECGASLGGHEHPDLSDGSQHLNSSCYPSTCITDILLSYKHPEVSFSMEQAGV
Measured Property: IC50

Name the value of IC50 reported for "Cc1cn(CCN2CCN(c3ccccc3-c3cc(C#N)cc(C(=O)NCCCN4CCCC4)c3)CC2)c2ccccc12" when tested on hQSK (Homo sapiens, UniProt Q9Y2K2). > 20 µM

* * *

- Target Entity: hCSK (Homo sapiens, UniProt P41240)
- Sequence (P41240 whole entry): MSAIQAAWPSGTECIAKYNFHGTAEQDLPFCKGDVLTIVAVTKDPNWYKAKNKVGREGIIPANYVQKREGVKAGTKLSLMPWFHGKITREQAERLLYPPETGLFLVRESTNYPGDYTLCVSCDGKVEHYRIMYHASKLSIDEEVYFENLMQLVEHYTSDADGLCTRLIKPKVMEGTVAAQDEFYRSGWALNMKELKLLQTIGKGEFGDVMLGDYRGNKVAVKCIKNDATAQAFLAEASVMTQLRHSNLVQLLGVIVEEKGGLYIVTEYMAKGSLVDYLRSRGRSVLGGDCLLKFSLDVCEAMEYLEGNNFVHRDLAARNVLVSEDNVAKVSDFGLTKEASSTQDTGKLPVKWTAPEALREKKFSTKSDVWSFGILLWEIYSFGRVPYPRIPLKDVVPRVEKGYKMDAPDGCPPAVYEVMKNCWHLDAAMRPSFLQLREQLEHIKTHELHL
Measured Property: IC50

Indicate its recorded IC50; the compound in question is Cc1cn(CCN2CCN(c3ccccc3-c3cc(C#N)cc(C(=O)NCCCN4CCCC4)c3)CC2)c2ccccc12 [LLY-507] > 20 µM

* * *

- Target Entity: hLATS1 (Homo sapiens, UniProt O95835)
- Construct: purchased DiscoverX (KINOMEscan platform)
- Procedure Summary: KINOMEscan
- Type: binding
Measured Property: IC50

Indicate its recorded IC50; the compound in question is "Cc1cn(CCN2CCN(c3ccccc3-c3cc(C#N)cc(C(=O)NCCCN4CCCC4)c3)CC2)c2ccccc12" > 20 µM

* * *

- Target Entity: hDAPK2 (Homo sapiens)
- Construct: purchased DiscoverX (KINOMEscan platform)
- Sequence (Q9UIK4 whole entry): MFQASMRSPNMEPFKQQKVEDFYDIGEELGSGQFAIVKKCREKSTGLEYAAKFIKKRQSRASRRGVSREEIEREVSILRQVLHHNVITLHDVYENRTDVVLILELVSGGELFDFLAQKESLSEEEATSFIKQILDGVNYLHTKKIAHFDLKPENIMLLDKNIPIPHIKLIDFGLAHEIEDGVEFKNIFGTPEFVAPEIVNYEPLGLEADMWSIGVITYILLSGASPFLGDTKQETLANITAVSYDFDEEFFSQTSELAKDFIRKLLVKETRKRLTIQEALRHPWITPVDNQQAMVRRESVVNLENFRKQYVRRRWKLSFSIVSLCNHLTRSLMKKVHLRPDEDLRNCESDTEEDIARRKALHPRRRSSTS
- Procedure Summary: KINOMEscan
- Assay type: binding
Measured Property: IC50

Indicate its recorded IC50; the compound in question is "Cc1cn(CCN2CCN(c3ccccc3-c3cc(C#N)cc(C(=O)NCCCN4CCCC4)c3)CC2)c2ccccc12" > 20 µM

* * *

- Target Entity: UniProt P29322
- Sequence (P29322 28-1005): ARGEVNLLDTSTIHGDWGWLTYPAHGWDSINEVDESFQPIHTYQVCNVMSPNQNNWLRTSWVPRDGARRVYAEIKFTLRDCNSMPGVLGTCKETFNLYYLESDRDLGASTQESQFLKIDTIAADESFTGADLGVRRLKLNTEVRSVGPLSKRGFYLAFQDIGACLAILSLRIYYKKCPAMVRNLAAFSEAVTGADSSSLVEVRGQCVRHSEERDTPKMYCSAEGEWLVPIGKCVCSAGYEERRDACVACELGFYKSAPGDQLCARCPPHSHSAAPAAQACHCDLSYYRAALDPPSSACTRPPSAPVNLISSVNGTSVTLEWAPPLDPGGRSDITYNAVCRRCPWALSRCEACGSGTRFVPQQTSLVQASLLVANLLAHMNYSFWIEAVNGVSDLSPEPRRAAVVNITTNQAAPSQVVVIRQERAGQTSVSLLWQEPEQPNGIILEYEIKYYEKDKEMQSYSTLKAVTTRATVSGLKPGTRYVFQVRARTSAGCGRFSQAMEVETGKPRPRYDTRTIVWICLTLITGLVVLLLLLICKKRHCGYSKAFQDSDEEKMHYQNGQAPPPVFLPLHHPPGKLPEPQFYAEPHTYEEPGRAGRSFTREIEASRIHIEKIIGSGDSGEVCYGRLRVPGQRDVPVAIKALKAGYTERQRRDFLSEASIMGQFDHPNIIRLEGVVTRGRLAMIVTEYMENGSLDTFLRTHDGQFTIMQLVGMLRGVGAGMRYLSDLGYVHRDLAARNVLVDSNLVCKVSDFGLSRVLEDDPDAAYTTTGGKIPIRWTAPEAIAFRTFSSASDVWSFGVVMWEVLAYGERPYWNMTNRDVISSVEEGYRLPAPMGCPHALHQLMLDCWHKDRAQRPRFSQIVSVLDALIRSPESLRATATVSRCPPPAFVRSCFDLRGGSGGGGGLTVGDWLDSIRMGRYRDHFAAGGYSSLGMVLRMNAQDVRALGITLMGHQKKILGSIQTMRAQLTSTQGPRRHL
Measured Property: IC50

Name the value of IC50 reported for "Cc1cn(CCN2CCN(c3ccccc3-c3cc(C#N)cc(C(=O)NCCCN4CCCC4)c3)CC2)c2ccccc12" when tested on UniProt P29322. > 20 µM

* * *

- Target Entity: hCSNK1E (Homo sapiens, UniProt P49674)
- Construct: purchased DiscoverX (KINOMEscan platform)
- Sequence (P49674 whole entry): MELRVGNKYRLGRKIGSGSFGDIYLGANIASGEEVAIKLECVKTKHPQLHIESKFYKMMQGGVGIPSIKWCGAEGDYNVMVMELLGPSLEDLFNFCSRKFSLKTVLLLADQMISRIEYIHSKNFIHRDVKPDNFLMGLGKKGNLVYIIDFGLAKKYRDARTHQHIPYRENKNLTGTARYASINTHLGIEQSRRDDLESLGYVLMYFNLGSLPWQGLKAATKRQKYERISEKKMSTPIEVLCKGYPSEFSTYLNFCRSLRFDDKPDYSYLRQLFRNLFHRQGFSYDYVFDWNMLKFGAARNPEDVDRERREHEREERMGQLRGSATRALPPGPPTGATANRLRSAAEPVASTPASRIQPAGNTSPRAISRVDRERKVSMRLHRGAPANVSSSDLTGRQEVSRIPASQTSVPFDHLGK
- Procedure Summary: KINOMEscan
- Assay type: binding
pIC50: −log10 of the molar value.
Measured Property: pIC50

Name the value of pIC50 reported for "Cc1cn(CCN2CCN(c3ccccc3-c3cc(C#N)cc(C(=O)NCCCN4CCCC4)c3)CC2)c2ccccc12" when tested on hCSNK1E (Homo sapiens, UniProt P49674). < 4.70

* * *

- Target Entity: hCTK (Homo sapiens, UniProt P42679)
- Sequence (P42679 whole entry): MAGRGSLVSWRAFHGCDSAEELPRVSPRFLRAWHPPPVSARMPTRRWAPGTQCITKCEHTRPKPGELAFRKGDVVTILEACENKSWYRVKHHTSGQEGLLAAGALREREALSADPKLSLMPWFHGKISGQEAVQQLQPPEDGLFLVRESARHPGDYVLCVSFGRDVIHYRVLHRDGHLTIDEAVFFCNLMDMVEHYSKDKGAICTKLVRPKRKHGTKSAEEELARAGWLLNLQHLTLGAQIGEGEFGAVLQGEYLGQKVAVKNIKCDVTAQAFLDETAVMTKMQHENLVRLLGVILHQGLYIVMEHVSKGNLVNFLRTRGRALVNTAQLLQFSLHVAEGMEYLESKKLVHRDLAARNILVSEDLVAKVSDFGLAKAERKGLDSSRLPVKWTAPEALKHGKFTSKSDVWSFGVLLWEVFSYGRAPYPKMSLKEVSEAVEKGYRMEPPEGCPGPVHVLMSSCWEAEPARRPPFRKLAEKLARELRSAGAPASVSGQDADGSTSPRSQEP
Measured Property: IC50

Name the value of IC50 reported for Cc1cn(CCN2CCN(c3ccccc3-c3cc(C#N)cc(C(=O)NCCCN4CCCC4)c3)CC2)c2ccccc12 [LLY-507] when tested on hCTK (Homo sapiens, UniProt P42679). > 20 µM

* * *

- Target Entity: hASK1 (Homo sapiens)
- Sequence (Q99683 1-1374): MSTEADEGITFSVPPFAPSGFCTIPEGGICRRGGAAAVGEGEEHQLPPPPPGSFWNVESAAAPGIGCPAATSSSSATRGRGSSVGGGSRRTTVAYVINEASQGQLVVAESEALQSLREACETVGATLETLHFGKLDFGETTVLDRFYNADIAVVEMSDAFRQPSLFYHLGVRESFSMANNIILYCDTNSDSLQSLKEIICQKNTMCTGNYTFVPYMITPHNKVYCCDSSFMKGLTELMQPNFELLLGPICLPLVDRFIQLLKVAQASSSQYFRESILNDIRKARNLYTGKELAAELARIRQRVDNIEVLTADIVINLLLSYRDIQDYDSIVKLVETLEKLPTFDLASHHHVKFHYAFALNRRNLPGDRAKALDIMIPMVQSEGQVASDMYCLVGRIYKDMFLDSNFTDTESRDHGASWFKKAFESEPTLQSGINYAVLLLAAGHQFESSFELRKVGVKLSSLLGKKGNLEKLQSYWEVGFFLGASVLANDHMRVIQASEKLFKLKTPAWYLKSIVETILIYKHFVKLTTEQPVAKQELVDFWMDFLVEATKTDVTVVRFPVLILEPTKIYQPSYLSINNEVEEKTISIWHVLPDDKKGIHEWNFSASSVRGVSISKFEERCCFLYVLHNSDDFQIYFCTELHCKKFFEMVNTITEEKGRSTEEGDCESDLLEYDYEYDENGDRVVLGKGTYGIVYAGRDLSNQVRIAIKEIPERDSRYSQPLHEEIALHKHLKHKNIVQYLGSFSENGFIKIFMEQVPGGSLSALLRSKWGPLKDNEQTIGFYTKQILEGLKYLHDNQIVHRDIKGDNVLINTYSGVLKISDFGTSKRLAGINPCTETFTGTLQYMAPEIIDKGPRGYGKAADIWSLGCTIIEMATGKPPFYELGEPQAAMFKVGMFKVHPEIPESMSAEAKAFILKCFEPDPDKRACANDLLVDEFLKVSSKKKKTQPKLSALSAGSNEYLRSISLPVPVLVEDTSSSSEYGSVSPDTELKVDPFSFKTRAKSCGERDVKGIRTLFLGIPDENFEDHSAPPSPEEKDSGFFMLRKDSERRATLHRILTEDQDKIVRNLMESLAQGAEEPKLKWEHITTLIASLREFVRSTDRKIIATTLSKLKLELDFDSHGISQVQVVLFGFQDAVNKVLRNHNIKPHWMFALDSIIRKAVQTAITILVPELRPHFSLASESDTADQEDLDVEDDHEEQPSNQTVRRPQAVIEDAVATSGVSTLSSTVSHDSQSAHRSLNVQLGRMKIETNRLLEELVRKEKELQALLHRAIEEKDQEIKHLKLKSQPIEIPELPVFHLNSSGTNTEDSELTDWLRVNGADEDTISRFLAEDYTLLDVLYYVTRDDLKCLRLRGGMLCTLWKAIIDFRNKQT
Measured Property: IC50

Indicate its recorded IC50; the compound in question is Cc1cn(CCN2CCN(c3ccccc3-c3cc(C#N)cc(C(=O)NCCCN4CCCC4)c3)CC2)c2ccccc12 [LLY-507] > 20 µM
